Test: Pharmacokinetics in rats after i.v. injection
Format: in vivo, SD rat
Conditions: Sprague-Dawley, rat, serum, iv, 2 mg/kg, i.v. 2 mg/kg, 5% DMSO, 10% Cremophor, 85% WFI, SD rat; Mean; read-out: MRT0-inf
Description: Bioavailability: Selected compounds were administered to rats per os or via injection following well known procedures.
result_type: MRT inf (h)
The figure you give is taken to be in h; do not add the unit.

**Query** Give the measured MRT inf of Cc1cc(OC(C)C)cc(C)c1-c1csc(NC(=O)c2ccncc2)n1 .
**Result** 6.46

---

assay: Pharmacokinetics in rats after i.v. injection; type: in vivo, SD rat; conditions: Sprague-Dawley, rat, serum, iv, 2 mg/kg, compound 42 i.v., SD rat; individual rats No. 1-3; read-out: MRT
result_type: MRT (h)
The figure you give is taken to be in h; do not add the unit.

**Query** Give the measured MRT of COc1cc(C)c(-c2csc(NC(=O)c3ccncc3)n2)c(C)c1 [Compound 42] .
**Result** 1.3
